# TARGET UNDER TEST: CYP2C19 (Homo sapiens, UniProt P33261)
# Sequence (P33261 whole entry): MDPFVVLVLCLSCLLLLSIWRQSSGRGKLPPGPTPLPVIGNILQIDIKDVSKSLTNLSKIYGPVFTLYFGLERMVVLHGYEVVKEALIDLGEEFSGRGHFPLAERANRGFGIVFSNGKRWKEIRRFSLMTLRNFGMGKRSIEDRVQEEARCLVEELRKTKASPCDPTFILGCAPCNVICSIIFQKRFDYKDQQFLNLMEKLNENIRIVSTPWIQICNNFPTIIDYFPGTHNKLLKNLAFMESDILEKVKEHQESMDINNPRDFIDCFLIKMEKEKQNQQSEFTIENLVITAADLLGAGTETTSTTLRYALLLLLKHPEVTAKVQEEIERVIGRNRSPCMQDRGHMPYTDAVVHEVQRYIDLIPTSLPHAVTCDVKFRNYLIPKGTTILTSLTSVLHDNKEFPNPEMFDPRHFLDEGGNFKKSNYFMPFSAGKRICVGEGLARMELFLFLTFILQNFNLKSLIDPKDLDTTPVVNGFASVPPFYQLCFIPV
# TEST: Inhibition of recombinant human CYP2C19 expressed in insect cell microsomes at 10 uM using Luciferin-H EGE as substrate preincubated for 20 mins followed by NADPH addition measured after 30 mins by luminometric method
# Type: ADME
# CONDITION DETAILS: probe Luciferin-H EGE
PROPERTY: inhibition at 0.5 h, 10 µM (%)

Some compounds with recorded inhibition at 0.5 h, 10 µM:
compound=COc1cc(C(=O)NC(=N)Nc2ccc(C)c(NC(=O)c3ccc(-c4ccc(F)cc4)cc3)c2)cc(OC)c1OC.Cl observed=76
compound="Cc1c(C)c2c(c(C)c1O)CCC(C)(COc1ccc(CC3SC(=O)NC3=O)cc1)O2 (stereo not given)" observed=84
compound=COc1cc(C(=O)NC(=N)Nc2ccc(C)c(NC(=O)c3ccc(-c4ccccc4)cc3)c2)cc(OC)c1OC.Cl observed=81

(1) COc1cc(C(=O)NC(=N)Nc2ccc(C)c(NC(=O)c3ccc(CCc4ccccc4)cc3)c2)cc(OC)c1OC.Cl
(2) COc1cc(C(=O)NC(=S)Nc2ccc(C)c(NC(=O)c3ccc(-c4ccc(F)cc4)cc3)c2)cc(OC)c1OC
Challenge: Which shows the larger inhibition at 0.5 h, 10 µM value: 1 or 2 ? The response must carry the label of the picked entry.
Response given: 1
(1: 83%, 2: 27%)

* * *

# TARGET UNDER TEST: UniProt:P11712
# TEST: Inhibition of recombinant human CYP2C9 expressed in insect cell microsomes at 10 uM using Luciferin-H as substrate preincubated for 30 mins followed by NADPH addition measured after 30 mins by luminometric method
# Format: ADME
# CONDITION DETAILS: probe Luciferin-H
PROPERTY: inhibition at 0.5 h, 10 µM (%)

chem_smiles=COc1cc(C(=O)NC(=S)Nc2ccc(C)c(NC(=O)c3ccc(-c4ccc(F)cc4)cc3)c2)cc(OC)c1OC property="inhibition at 0.5 h, 10 µM" observed=71
chem_smiles=COc1cc(C(=O)NC(=N)Nc2ccc(C)c(NC(=O)c3ccc(-c4ccc(F)cc4)cc3)c2)cc(OC)c1OC.Cl property="inhibition at 0.5 h, 10 µM" observed=79
chem_smiles=COc1cc(C(=O)NC(=N)Nc2ccc(C)c(NC(=O)c3ccc(CCc4ccccc4)cc3)c2)cc(OC)c1OC.Cl property="inhibition at 0.5 h, 10 µM" observed=83
chem_smiles=COc1cc(C(=O)NC(=N)Nc2ccc(C)c(NC(=O)c3ccc(-c4ccccc4)cc3)c2)cc(OC)c1OC.Cl property="inhibition at 0.5 h, 10 µM" observed=74

* * *

# TEST: Inhibition of hedgehog signaling pathway-mediated differentiation of mouse C3H10T1/2 cells assessed as decrease in SAG-induced ALP activity after 6 days by chemiluminescence-based assay
# CONDITION DETAILS: C3H 10T1/2, 144 h
PROPERTY: IC50 (nM)

chem_smiles=COc1cc(C(=O)NC(=N)Nc2ccc(C)c(NC(=O)c3ccc(-c4ccc(F)cc4)cc3)c2)cc(OC)c1OC.Cl observed=70
chem_smiles=COc1cc(C(=O)NC(=N)Nc2ccc(C)c(NC(=O)c3ccc(CCc4ccccc4)cc3)c2)cc(OC)c1OC.Cl observed=40
chem_smiles=CS(=O)(=O)c1ccc(C(=O)Nc2ccc(Cl)c(-c3ccccn3)c2)c(Cl)c1 observed=50

(a) COc1cc(C(=O)NC(=N)Nc2ccc(C)c(NC(=O)c3ccc(-c4ccccc4)cc3)c2)cc(OC)c1OC.Cl
(b) COc1cc(C(=O)NC(=S)Nc2ccc(C)c(NC(=O)c3ccc(-c4ccc(F)cc4)cc3)c2)cc(OC)c1OC
Challenge: For the pair a and b , which entry has the numerically smaller recorded IC50? The response must carry the label of the picked entry.
Response given: a
(a: 60 nM, b: 670 nM)

* * *

# TEST: Intrinsic clearance in mouse liver microsomes at 1 uM after 120 mins by HPLC-MS/MS analysis
# Assay type: ADME, microsome
# CONDITION DETAILS: read-out: CLH
PROPERTY: CLint scaled at 1 µM (mL/min/kg)

(1) CCOc1ccc2ccc(=O)oc2c1
(2) COc1cc(C(=O)NC(=N)Nc2ccc(C)c(NC(=O)c3ccc(CCc4ccccc4)cc3)c2)cc(OC)c1OC.Cl
Challenge: For the pair 1 and 2 , which entry has the numerically smaller recorded CLint scaled at 1 µM? The response must carry the label of the picked entry.
Response given: 2

* * *

# TEST: in vitro
# CONDITION DETAILS: human, Caco-2
# Description: Apparent permeability of the compound from basolateral to apical side in human Caco2 cells assessed as drug recovery after 120 mins by LC-MS/MS analysis
PROPERTY: recovery at 2 h (%)

molecule=COc1cc(C(=O)NC(=S)Nc2ccc(C)c(NC(=O)c3ccc(-c4ccc(F)cc4)cc3)c2)cc(OC)c1OC property="recovery at 2 h" observed=42.9

(I) COc1cc(C(=O)NC(=N)Nc2ccc(C)c(NC(=O)c3ccc(-c4ccc(F)cc4)cc3)c2)cc(OC)c1OC.Cl
(II) COc1cc(C(=O)NC(=N)Nc2ccc(C)c(NC(=O)c3ccc(CCc4ccccc4)cc3)c2)cc(OC)c1OC.Cl
(III) CC(C)NCC(O)COc1ccc(CC(N)=O)cc1 (stereo not given)
Challenge: Please produce an ascending ranking of these molecules based on recovery at 2 h. Submit the labels in the order that the ranking request calls for.
Response given: I, II, III

* * *

# Tested on: Mus musculus
# TEST: Clast in CD1 mouse at 200 mg/kg, po administered as single dose by HPLC-MS/MS analysis
# Format: ADME, organism-based
# CONDITION DETAILS: in vivo
PROPERTY: Clast (ng/mL)

chem_smiles=COc1cc(C(=O)NC(=N)Nc2ccc(C)c(NC(=O)c3ccc(-c4ccccc4)cc3)c2)cc(OC)c1OC.Cl observed=74.2

(a) COc1cc(C(=O)NC(=N)Nc2ccc(C)c(NC(=O)c3ccc(-c4ccc(F)cc4)cc3)c2)cc(OC)c1OC.Cl
(b) COc1cc(C(=O)NC(=N)Nc2ccc(C)c(NC(=O)c3ccc(CCc4ccccc4)cc3)c2)cc(OC)c1OC.Cl
Challenge: Which shows the larger Clast value: a or b ? The response must carry the label of the picked entry.
Response given: a

* * *

# TEST: Apparent terminal volume of distribution in CD1 mouse at 200 mg/kg, po administered as single dose by HPLC-MS/MS analysis
# Assay type: ADME, organism-based
# CONDITION DETAILS: in vivo, read-out: Vz/F
PROPERTY: Vd/F (L/kg)

chem_smiles=COc1cc(C(=O)NC(=N)Nc2ccc(C)c(NC(=O)c3ccc(-c4ccccc4)cc3)c2)cc(OC)c1OC.Cl property=Vd/F measure_unit=L/kg observed=2.96

(1) COc1cc(C(=O)NC(=N)Nc2ccc(C)c(NC(=O)c3ccc(-c4ccc(F)cc4)cc3)c2)cc(OC)c1OC.Cl
(2) COc1cc(C(=O)NC(=N)Nc2ccc(C)c(NC(=O)c3ccc(CCc4ccccc4)cc3)c2)cc(OC)c1OC.Cl
Challenge: For the pair 1 and 2 , which entry has the numerically smaller recorded Vd/F? The response must carry the label of the picked entry.
Response given: 1

* * *

# TARGET UNDER TEST: CYP2C9 (Homo sapiens, UniProt P11712)
# Sequence (P11712 whole entry): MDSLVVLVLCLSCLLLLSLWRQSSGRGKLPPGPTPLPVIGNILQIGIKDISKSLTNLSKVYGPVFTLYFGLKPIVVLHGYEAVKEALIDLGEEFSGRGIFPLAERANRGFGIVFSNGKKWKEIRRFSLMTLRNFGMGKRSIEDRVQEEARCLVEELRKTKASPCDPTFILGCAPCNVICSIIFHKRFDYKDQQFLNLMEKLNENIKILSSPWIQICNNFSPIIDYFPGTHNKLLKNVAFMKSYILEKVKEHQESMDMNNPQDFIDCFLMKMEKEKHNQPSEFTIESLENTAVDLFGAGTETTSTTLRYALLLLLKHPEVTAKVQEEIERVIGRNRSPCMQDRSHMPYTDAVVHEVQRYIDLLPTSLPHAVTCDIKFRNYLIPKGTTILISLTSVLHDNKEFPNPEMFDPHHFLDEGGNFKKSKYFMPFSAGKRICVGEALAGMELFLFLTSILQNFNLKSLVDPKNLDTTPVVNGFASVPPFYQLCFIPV
# TEST: Inhibition of recombinant human CYP2C9 expressed in insect cell microsomes at 5 uM using Luciferin-H as substrate preincubated for 30 mins followed by NADPH addition measured after 30 mins by luminometric method
# Type: ADME
# CONDITION DETAILS: probe Luciferin-H
PROPERTY: inhibition at 0.5 h, 5 µM (%)

chem_smiles=COc1cc(C(=O)NC(=N)Nc2ccc(C)c(NC(=O)c3ccc(-c4ccccc4)cc3)c2)cc(OC)c1OC.Cl property="inhibition at 0.5 h, 5 µM" observed=71
chem_smiles=COc1cc(C(=O)NC(=N)Nc2ccc(C)c(NC(=O)c3ccc(CCc4ccccc4)cc3)c2)cc(OC)c1OC.Cl property="inhibition at 0.5 h, 5 µM" observed=81
chem_smiles=COc1cc(C(=O)NC(=N)Nc2ccc(C)c(NC(=O)c3ccc(-c4ccc(F)cc4)cc3)c2)cc(OC)c1OC.Cl property="inhibition at 0.5 h, 5 µM" observed=76
chem_smiles=COc1cc(C(=O)NC(=S)Nc2ccc(C)c(NC(=O)c3ccc(-c4ccc(F)cc4)cc3)c2)cc(OC)c1OC property="inhibition at 0.5 h, 5 µM" observed=69

* * *

# TEST: Cmax in CD1 mouse at 200 mg/kg, po administered as single dose by HPLC-MS/MS analysis
# Assay type: ADME, organism-based
# Set-up: dose 200 mg/kg, route oral
# CONDITION DETAILS: in vivo
PROPERTY: Cmax (µg/mL)

(1) COc1cc(C(=O)NC(=N)Nc2ccc(C)c(NC(=O)c3ccc(-c4ccc(F)cc4)cc3)c2)cc(OC)c1OC.Cl
(2) COc1cc(C(=O)NC(=N)Nc2ccc(C)c(NC(=O)c3ccc(-c4ccccc4)cc3)c2)cc(OC)c1OC.Cl
(3) COc1cc(C(=O)NC(=N)Nc2ccc(C)c(NC(=O)c3ccc(CCc4ccccc4)cc3)c2)cc(OC)c1OC.Cl
Challenge: In ascending order of recorded Cmax, list the compounds from the set above. Submit the labels in the order that the ranking request calls for.
Response given: 3, 1, 2
(3: 11 µg/mL, 1: 17.3 µg/mL, 2: 29.6 µg/mL)
